System: HCC 2998
experimentalDetails: NCI tumour cell line growth inhibition, 48 h
Activity calls are given as the source filed them. Cut-off read from the data, not from the text of the source: active = GI50 up to about 1.1 µM and inactive = higher.
Possible outcomes: class 1 = active, class 0 = inactive

{"compound": "CC(=O)/C(=C\\c1ccccc1)C(=O)Nc1ccccc1", "targetOfAssay": "HCC 2998", "assignedCategory": "class 0"}
{"compound": "O=C(NS(=O)(=O)Nc1ccc(Cl)cc1)OCc1ccc(Cl)cc1Cl", "targetOfAssay": "HCC 2998", "assignedCategory": "class 0"}
{"compound": "CCOC(=O)Cn1c(=O)c2nc(SC)sc2n(-c2ccc(C)cc2)c1=S", "targetOfAssay": "HCC 2998", "assignedCategory": "class 0"}
{"compound": "Cc1nc2c(C)ccc([N+](=O)[O-])c2c(NCCCN(C)C)c1C", "targetOfAssay": "HCC 2998", "assignedCategory": "class 0"}
{"compound": "O=C1C=C(N2CC2)C(=O)C=C1N1CC1", "targetOfAssay": "HCC 2998", "assignedCategory": "class 1"}
{"compound": "O=P1(Oc2ccc(Cl)cc2)OCCS1 (stereo unspecified)", "targetOfAssay": "HCC 2998", "assignedCategory": "class 0"}
{"compound": "Cc1cccc2c(N)c3cccc(C(=O)NCC[N+](C)(C)Cc4sc(N5CCOCC5)nc4[N+](=O)[O-])c3nc12", "targetOfAssay": "HCC 2998", "assignedCategory": "class 0"}
{"compound": "N#Cc1c(O)cc(=O)n2c1[nH]c1ccccc12", "targetOfAssay": "HCC 2998", "assignedCategory": "class 0"}
{"compound": "CC1=NN(c2cc(Cl)c(S(=O)(=O)O)cc2Cl)C2(C1)C(Cl)C(=O)N2c1nc2ccccc2s1 (stereo unspecified)", "targetOfAssay": "HCC 2998", "assignedCategory": "class 0"}
{"compound": "CC(C)=CCC[C@@H](C)C1=C(Nc2ccccc2Cl)C(=O)C(C)=C(O)C1=O", "targetOfAssay": "HCC 2998", "assignedCategory": "class 0"}
{"compound": "O=C1CC(C2(O)C(=O)Nc3ccc([N+](=O)[O-])cc32)c2ccccc21 (stereo unspecified)", "targetOfAssay": "HCC 2998", "assignedCategory": "class 0"}
{"compound": "COc1ccc2[nH]c3c(C)c4ccnc(NCCCN(C)CCCNc5ccc6nnn7c8ccccc8c(=O)c5c67)c4c(C)c3c2c1", "targetOfAssay": "HCC 2998", "assignedCategory": "class 1"}
{"compound": "CN(C)CC1CCC/C(=C\\c2ccc(N(C)C)cc2)C1=O (stereo unspecified)", "targetOfAssay": "HCC 2998", "assignedCategory": "class 0"}
{"compound": "NC(=O)Nc1ccc(C(=O)NCCCNC(=O)c2ccc(NC(N)=O)cc2)cc1", "targetOfAssay": "HCC 2998", "assignedCategory": "class 0"}
{"compound": "Cn1c(-c2cccs2)cc(-c2ccsc2)c1-c1cccs1", "targetOfAssay": "HCC 2998", "assignedCategory": "class 0"}
{"compound": "CCOC(=O)C1=C(Nc2cccc3ccccc23)OC/C1=N\\NC(=O)c1ccccc1O", "targetOfAssay": "HCC 2998", "assignedCategory": "class 0"}
{"compound": "CC(=O)OC12OC(C)(C3C(=O)N(c4ccccc4)C(=O)C31)N(c1ccccc1)C2=O (stereo unspecified)", "targetOfAssay": "HCC 2998", "assignedCategory": "class 0"}
{"compound": "COc1ccccc1N1C(=O)C2c3[nH]c4ccccc4c3C3CCC(C(C)(C)C)CC3C2C1=O (stereo unspecified)", "targetOfAssay": "HCC 2998", "assignedCategory": "class 0"}
{"compound": "CC(C)(C)[C@H]1CO[C@]2(C)[C@@H]3C[C@@H]3C(=O)N12", "targetOfAssay": "HCC 2998", "assignedCategory": "class 0"}
{"compound": "c1ccc(C(C2=Nc3cccc4cccc(c34)N2)c2ccccc2)cc1", "targetOfAssay": "HCC 2998", "assignedCategory": "class 0"}
{"compound": "COC(=N)/C(=C1\\OC(=N)C(c2ccc(Cl)cc2)=C1O)c1ccc(Cl)cc1", "targetOfAssay": "HCC 2998", "assignedCategory": "class 0"}
